Items are presented alongside their recorded Kd.
# Assay System: T1, recombinant human activated Factor VII (FVIIa) (human, UniProt P08709 61-212; P08709 213-466, ten glutamate residues of the Gla domain may be gamma-carboxylated)
# T1 construct: chains tethered by a disulfide bond; also called Factor VIIa; rFVIIa
# T1 sequence 1: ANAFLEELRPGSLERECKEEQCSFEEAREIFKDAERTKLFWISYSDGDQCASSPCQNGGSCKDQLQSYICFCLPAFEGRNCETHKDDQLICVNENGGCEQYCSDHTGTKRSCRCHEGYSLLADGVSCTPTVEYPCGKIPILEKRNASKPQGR
# T1 sequence 2: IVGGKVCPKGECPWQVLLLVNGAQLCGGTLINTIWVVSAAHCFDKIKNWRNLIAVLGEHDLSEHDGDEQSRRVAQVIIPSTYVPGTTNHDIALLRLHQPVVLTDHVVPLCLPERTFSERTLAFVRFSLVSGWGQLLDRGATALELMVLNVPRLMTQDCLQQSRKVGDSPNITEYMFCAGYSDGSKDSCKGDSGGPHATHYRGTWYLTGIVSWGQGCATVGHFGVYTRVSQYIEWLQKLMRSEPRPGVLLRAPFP
# Assay Text: BLI (Fortebio)
Give a bare numeral; the unit nM is implied.

INSERT INTO results (binder, unit_descriptor, val) VALUES
  ('VH SEQ ID NO 530 / VL SEQ ID NO 406 (antibody, IgG4, V domains shown, humanized 11F2; IgG4 S228P/kappa) VH: QVQLQESGPGLVEPSQTLSLTCTVSGYSISSDSAWSWIRQPPGKGLEWIGYIQYSGSTNYNPSLKSRVTISRDTSKNQFSLKLSSVTAADTAVYYCARSVNYYGNSFAVGYWGQGTLVTVSS VL: EIVLTQSPATLSLSPGERATLSCRASQGVSDYLAWYQQKPGQAPRLLIKYASQPATGIPARFSGSGSGTDFTLTISSLEPEDFAVYYCQNGHSFPLTFGAGTKLEIK', 'nM', 4.3);

Which Kd reading was recorded for the binder VH SEQ ID NO 514 / VL SEQ ID NO 398 (antibody, IgG4, V domains shown, humanized 11F2; IgG4 S228P/kappa) VH: QVQLQESGPGLVEPSDTLSLTCAVSGYSITSDSAWSWIRQPPGKKLEWIGYIQYSGSTNYNPSLKSRVTMSRDTSKNQFSLKLSSVTALDTAVYYCARSVNYYGNSFAVGYWGQGTLVTVSS VL: EIVLTQSPATLSLSPGERATLSCRASQGVSDYLAWYQQKPGEAPRLLIKYTSQPATGIPARFSGSGSGTDFTLTISSLEPEDFAVYYCQNGHSFPLTFGQGTKLEIK ?
7.9
